Where do the numbers come from? From ChEMBL document CHEMBL4000184.

ASSAY TEXT: n-Octanol-buffer distribution coefficient, log D of the compound at pH 7.4 incubated for 4 hrs by HPLC-UV-vis based shake flask method
Assay type: physicochemical
MEASUREMENT KIND: logD at 4 h
Answers are plain numbers.

Q. Quick one: logD at 4 h of CCN(CC)CCNC(=O)c1c(C)[nH]c(/C=C2\C(=O)Nc3ccc(F)cc32)c1C ?
A. 2.51

Q. Any idea what its logD at 4 h is? The compound is CCN(CCNC(=O)c1c(C)[nH]c(/C=C2\C(=O)Nc3ccc(F)cc32)c1C)CCOCCOCCOCc1cn(CCCCN2C[C@@H]3C[C@H]2C(=O)N[C@@H](CCCNC(=N)N)C(=O)NCC(=O)N[C@@H](CC(=O)O)C(=O)N3)nn1
A. -2.56

Q. Returns the measured logD at 4 h for the input compound. Input: Cc1[nH]c(/C=C2\C(=O)Nc3ccc(F)cc32)c(C)c1C(=O)NCCNC(=O)CCc1cn(CCCCN2C[C@@H]3C[C@H]2C(=O)N[C@@H](CCCNC(=N)N)C(=O)NCC(=O)N[C@@H](CC(=O)O)C(=O)N3)nn1
A. -2.03

Read the next record carefully.
Q. Which logD at 4 h value belongs to CCN(CCNC(=O)c1c(C)[nH]c(/C=C2\C(=O)Nc3ccc(F)cc32)c1C)CCOCCOCCNC(=O)c1cc(OCc2cn(CCCCN3C[C@@H]4C[C@H]3C(=O)N[C@@H](CCCNC(=N)N)C(=O)NCC(=O)N[C@@H](CC(=O)O)C(=O)N4)nn2)cc(OCc2cn(CCCCN3C[C@@H]4C[C@H]3C(=O)N[C@@H](CCCNC(=N)N)C(=O)NCC(=O)N[C@@H](CC(=O)O)C(=O)N4)nn2)c1 ?
A. -3.02

* * *

MEASURED ON: Integrin alpha-V/beta-3 (Homo sapiens, UniProt P05106+P06756)
Sequence (P05106 27-788 limits assumed): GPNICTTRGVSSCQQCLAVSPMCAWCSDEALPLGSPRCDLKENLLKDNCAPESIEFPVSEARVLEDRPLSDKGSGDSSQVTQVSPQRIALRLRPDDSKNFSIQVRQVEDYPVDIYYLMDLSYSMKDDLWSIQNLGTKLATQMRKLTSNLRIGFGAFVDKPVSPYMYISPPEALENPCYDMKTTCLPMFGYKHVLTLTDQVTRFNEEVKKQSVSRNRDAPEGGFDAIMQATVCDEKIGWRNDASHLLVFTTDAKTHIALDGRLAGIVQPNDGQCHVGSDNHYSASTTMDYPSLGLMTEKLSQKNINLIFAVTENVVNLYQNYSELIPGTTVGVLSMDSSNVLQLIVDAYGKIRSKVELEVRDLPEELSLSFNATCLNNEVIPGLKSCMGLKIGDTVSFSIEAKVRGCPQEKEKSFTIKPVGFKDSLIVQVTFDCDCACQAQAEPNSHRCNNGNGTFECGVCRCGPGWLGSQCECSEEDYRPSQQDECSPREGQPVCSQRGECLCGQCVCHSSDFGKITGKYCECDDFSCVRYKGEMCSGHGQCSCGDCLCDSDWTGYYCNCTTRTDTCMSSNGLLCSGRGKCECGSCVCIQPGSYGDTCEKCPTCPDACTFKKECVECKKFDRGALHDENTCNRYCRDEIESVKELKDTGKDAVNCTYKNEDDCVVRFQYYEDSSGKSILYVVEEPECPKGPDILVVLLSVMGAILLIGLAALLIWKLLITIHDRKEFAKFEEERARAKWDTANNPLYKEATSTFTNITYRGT
Sequence (P06756 31-889 limits assumed): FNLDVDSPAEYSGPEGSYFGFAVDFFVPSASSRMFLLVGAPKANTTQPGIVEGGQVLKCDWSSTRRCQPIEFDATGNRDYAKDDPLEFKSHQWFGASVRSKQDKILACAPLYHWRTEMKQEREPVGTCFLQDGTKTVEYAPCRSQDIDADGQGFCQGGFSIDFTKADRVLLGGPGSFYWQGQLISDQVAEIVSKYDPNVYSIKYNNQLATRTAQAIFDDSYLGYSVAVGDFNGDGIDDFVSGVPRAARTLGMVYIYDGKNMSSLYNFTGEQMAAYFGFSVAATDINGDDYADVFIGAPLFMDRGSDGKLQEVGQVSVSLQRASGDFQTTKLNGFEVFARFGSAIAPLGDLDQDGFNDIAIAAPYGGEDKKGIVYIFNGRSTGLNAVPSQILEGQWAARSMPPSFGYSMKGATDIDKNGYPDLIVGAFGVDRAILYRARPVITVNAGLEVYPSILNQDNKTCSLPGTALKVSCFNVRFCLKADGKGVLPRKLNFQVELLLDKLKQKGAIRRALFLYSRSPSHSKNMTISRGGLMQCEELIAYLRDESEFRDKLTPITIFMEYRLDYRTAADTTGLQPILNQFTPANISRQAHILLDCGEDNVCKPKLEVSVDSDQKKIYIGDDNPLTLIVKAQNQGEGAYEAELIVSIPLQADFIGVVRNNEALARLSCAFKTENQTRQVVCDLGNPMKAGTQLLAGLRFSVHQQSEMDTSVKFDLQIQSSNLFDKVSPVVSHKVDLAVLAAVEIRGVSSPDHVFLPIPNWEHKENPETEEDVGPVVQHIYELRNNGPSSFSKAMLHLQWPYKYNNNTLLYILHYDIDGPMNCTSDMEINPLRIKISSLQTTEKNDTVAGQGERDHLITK
Sequence (P06756 891-1048 limits assumed): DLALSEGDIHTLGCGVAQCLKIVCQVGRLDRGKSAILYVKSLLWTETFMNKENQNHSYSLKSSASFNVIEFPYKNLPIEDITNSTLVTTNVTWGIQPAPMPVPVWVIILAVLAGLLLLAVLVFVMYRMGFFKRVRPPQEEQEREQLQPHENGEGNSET
ASSAY TEXT: Drug uptake in human EPC assessed as alphavbeta3-mediated drug uptake by measuring intracellular content per mg protein at 1 uM measured after 8 hr by HPLC-ESI-MS/MS analysis
Format: ADME, cell-based
MEASUREMENT KIND: Drug uptake (nmol/mg)
Numbers only, in nmol/mg.

These solved cases illustrate the format of a correct answer.
Q. Fill in the blank: the reported Drug uptake of CCN(CC)CCNC(=O)c1c(C)[nH]c(/C=C2\C(=O)Nc3ccc(F)cc32)c1C is ____.
A. 2.9

Q. For the compound shown here, CCN(CCNC(=O)c1c(C)[nH]c(/C=C2\C(=O)Nc3ccc(F)cc32)c1C)CCOCCOCCNC(=O)c1cc(OCc2cn(CCCCN3C[C@@H]4C[C@H]3C(=O)N[C@@H](CCCNC(=N)N)C(=O)NCC(=O)N[C@@H](CC(=O)O)C(=O)N4)nn2)cc(OCc2cn(CCCCN3C[C@@H]4C[C@H]3C(=O)N[C@@H](CCCNC(=N)N)C(=O)NCC(=O)N[C@@H](CC(=O)O)C(=O)N4)nn2)c1 , give the reported Drug uptake.
A. 0.54

Q. Quick check: Drug uptake of Cc1[nH]c(/C=C2\C(=O)Nc3ccc(F)cc32)c(C)c1C(=O)NCCNC(=O)CCc1cn(CCCCN2C[C@@H]3C[C@H]2C(=O)N[C@@H](CCCNC(=N)N)C(=O)NCC(=O)N[C@@H](CC(=O)O)C(=O)N3)nn1 ?
A. 0.22

***
Q. Can you share its Drug uptake? I mean this compound: CCN(CCNC(=O)c1c(C)[nH]c(/C=C2\C(=O)Nc3ccc(F)cc32)c1C)CCOCCOCCOCc1cn(CCCCN2C[C@@H]3C[C@H]2C(=O)N[C@@H](CCCNC(=N)N)C(=O)NCC(=O)N[C@@H](CC(=O)O)C(=O)N3)nn1
A. 0.43

* * *

ASSAY TEXT: Stability in human plasma assessed as compound remaining at 1 uM measured up to 8 hrs by HPLC-UV-Vis analysis
Format: ADME, cell-free
CONDITION: read-out: Stability
Hi there, I'd appreciate the recorded remaining at 8 h, 1 µM for every entry that follows.
Give bare numbers, in %.

Q. Please report the recorded remaining at 8 h, 1 µM for CCN(CCNC(=O)c1c(C)[nH]c(/C=C2\C(=O)Nc3ccc(F)cc32)c1C)CCOCCOCCNC(=O)c1cc(OCc2cn(CCCCN3C[C@@H]4C[C@H]3C(=O)N[C@@H](CCCNC(=N)N)C(=O)NCC(=O)N[C@@H](CC(=O)O)C(=O)N4)nn2)cc(OCc2cn(CCCCN3C[C@@H]4C[C@H]3C(=O)N[C@@H](CCCNC(=N)N)C(=O)NCC(=O)N[C@@H](CC(=O)O)C(=O)N4)nn2)c1 .
A. 98.6

// each listed compound needs a value for remaining at 8 h, 1 µM
1. Cc1[nH]c(/C=C2\C(=O)Nc3ccc(F)cc32)c(C)c1C(=O)NCCNC(=O)CCc1cn(CCCCN2C[C@@H]3C[C@H]2C(=O)N[C@@H](CCCNC(=N)N)C(=O)NCC(=O)N[C@@H](CC(=O)O)C(=O)N3)nn1
2. CCN(CC)CCNC(=O)c1c(C)[nH]c(/C=C2\C(=O)Nc3ccc(F)cc32)c1C [SUNITINIB]

A.
1: 99; 2: 102

Q. Requested field: remaining at 8 h, 1 µM. Item: CCN(CCNC(=O)c1c(C)[nH]c(/C=C2\C(=O)Nc3ccc(F)cc32)c1C)CCOCCOCCOCc1cn(CCCCN2C[C@@H]3C[C@H]2C(=O)N[C@@H](CCCNC(=N)N)C(=O)NCC(=O)N[C@@H](CC(=O)O)C(=O)N3)nn1
A. 107

* * *

MEASURED ON: Integrin alpha-V/beta-3 (Homo sapiens, UniProt P05106+P06756)
ASSAY TEXT: Displacement of biotinylated vitronectin from human integrin alphaVbeta3 measured after 3 hrs by solid-phase receptor binding assay
Assay type: protein-complex assay
MEASUREMENT KIND: pIC50
Give bare numbers, as −log10 of the molar value.

Q. Which pIC50 is reported for this compound? N=C(N)NCCC[C@@H]1NC(=O)[C@@H]2C[C@@H](CN2CCN)NC(=O)[C@H](CC(=O)O)NC(=O)CNC1=O
A. 8.21

* * *

MEASURED ON: Integrin alpha-5/beta-1 (Homo sapiens, UniProt P05556+P08648)
Sequence (P05556 21-798 limits assumed): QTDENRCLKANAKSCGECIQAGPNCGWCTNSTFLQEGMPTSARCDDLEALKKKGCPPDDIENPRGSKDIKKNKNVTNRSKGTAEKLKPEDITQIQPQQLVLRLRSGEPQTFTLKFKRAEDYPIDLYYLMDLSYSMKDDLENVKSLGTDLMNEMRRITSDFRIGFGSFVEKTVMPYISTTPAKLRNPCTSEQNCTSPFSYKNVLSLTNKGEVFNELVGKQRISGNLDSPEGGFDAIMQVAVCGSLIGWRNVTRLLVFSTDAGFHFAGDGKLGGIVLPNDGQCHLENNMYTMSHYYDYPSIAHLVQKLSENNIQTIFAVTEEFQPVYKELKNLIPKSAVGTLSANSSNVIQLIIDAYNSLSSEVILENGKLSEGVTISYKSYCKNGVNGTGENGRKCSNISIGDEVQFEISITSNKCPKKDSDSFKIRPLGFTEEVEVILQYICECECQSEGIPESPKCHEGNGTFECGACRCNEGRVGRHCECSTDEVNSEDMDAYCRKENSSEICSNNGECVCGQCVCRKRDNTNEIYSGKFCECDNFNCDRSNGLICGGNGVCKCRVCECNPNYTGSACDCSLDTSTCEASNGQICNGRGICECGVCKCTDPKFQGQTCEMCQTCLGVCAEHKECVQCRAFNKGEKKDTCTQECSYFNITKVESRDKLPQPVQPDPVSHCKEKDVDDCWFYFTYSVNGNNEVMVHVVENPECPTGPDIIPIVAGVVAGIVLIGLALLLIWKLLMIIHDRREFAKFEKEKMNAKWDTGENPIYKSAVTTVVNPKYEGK
Sequence (P08648 42-894 limits assumed): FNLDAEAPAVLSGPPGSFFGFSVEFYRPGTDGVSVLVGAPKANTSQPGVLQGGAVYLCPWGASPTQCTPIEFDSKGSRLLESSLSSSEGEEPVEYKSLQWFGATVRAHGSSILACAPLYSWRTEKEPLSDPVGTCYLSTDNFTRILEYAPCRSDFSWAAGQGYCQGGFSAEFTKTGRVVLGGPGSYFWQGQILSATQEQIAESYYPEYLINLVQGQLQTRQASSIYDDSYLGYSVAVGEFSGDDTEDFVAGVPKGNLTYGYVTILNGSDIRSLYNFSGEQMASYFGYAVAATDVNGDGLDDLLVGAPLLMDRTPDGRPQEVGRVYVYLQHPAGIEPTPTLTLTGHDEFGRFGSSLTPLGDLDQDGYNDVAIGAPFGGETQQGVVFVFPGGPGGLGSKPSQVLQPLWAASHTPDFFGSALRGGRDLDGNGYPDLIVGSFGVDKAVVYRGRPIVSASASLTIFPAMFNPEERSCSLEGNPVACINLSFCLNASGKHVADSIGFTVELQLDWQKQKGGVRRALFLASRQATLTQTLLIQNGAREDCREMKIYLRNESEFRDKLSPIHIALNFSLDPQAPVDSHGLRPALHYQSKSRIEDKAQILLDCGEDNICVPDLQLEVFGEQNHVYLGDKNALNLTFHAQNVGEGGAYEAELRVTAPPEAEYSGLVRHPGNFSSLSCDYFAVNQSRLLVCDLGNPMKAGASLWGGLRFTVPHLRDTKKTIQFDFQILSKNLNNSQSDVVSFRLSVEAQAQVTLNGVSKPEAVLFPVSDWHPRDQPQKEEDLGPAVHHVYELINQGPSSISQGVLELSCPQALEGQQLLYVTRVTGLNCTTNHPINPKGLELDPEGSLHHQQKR
Sequence (P08648 895-1049 limits assumed): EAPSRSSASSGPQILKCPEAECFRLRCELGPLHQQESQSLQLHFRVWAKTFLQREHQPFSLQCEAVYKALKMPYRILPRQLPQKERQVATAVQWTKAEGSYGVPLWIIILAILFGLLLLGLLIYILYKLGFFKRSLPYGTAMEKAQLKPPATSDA
ASSAY TEXT: Inhibition of alpha5beta1 (unknown origin)
Assay type: protein-complex assay
MEASUREMENT KIND: pIC50
Numbers only, as −log10 of the molar value.

Q. // pIC50 lookup, key: N=C(N)NCCC[C@@H]1NC(=O)[C@@H]2C[C@@H](CN2CCN)NC(=O)[C@H](CC(=O)O)NC(=O)CNC1=O
A. 6.82

* * *

ASSAY TEXT: Stability in rat plasma assessed as compound remaining at 1 uM measured up to 8 hrs by HPLC-UV-Vis analysis
Assay type: ADME, cell-free
CONDITION: read-out: Stability
MEASUREMENT KIND: remaining at 8 h, 1 µM (%)
Answers are plain numbers, in %.

Q. Dear colleague, I am looking for the recorded remaining at 8 h, 1 µM of the following molecule: CCN(CC)CCNC(=O)c1c(C)[nH]c(/C=C2\C(=O)Nc3ccc(F)cc32)c1C
A. 97.3

Q. What value of remaining at 8 h, 1 µM has been reported for the following molecule? CCN(CCNC(=O)c1c(C)[nH]c(/C=C2\C(=O)Nc3ccc(F)cc32)c1C)CCOCCOCCNC(=O)c1cc(OCc2cn(CCCCN3C[C@@H]4C[C@H]3C(=O)N[C@@H](CCCNC(=N)N)C(=O)NCC(=O)N[C@@H](CC(=O)O)C(=O)N4)nn2)cc(OCc2cn(CCCCN3C[C@@H]4C[C@H]3C(=O)N[C@@H](CCCNC(=N)N)C(=O)NCC(=O)N[C@@H](CC(=O)O)C(=O)N4)nn2)c1
A. 109

Q. Any idea what remaining at 8 h, 1 µM was measured for Cc1[nH]c(/C=C2\C(=O)Nc3ccc(F)cc32)c(C)c1C(=O)NCCNC(=O)CCc1cn(CCCCN2C[C@@H]3C[C@H]2C(=O)N[C@@H](CCCNC(=N)N)C(=O)NCC(=O)N[C@@H](CC(=O)O)C(=O)N3)nn1 ?
A. 88.2

Please find the next molecule below.
Q. GET /values?readout=remaining at 8 h, 1 µM&item= CCN(CCNC(=O)c1c(C)[nH]c(/C=C2\C(=O)Nc3ccc(F)cc32)c1C)CCOCCOCCOCc1cn(CCCCN2C[C@@H]3C[C@H]2C(=O)N[C@@H](CCCNC(=N)N)C(=O)NCC(=O)N[C@@H](CC(=O)O)C(=O)N3)nn1
A. 104

* * *

MEASURED ON: Integrin alpha-V/beta-3 (Homo sapiens, UniProt P05106+P06756)
ASSAY TEXT: Drug internalization in human EPC assessed as alphavbeta3-mediated drug uptake by measuring intracellular content per mg protein at 1 uM measured after 1 hr by HPLC-ESI-MS/MS analysis
Format: ADME, cell-based
Field: Drug uptake. Provide a value for each of the compounds that follow.
Numbers only, in nmol/mg.

See these solved cases before continuing.
Q. Can you look up Drug uptake on Integrin alpha-V/beta-3 (Homo sapiens, UniProt P05106+P06756) for CCN(CCNC(=O)c1c(C)[nH]c(/C=C2\C(=O)Nc3ccc(F)cc32)c1C)CCOCCOCCOCc1cn(CCCCN2C[C@@H]3C[C@H]2C(=O)N[C@@H](CCCNC(=N)N)C(=O)NCC(=O)N[C@@H](CC(=O)O)C(=O)N3)nn1 ?
A. 0.48

Q. # query: Drug uptake | item CCN(CCNC(=O)c1c(C)[nH]c(/C=C2\C(=O)Nc3ccc(F)cc32)c1C)CCOCCOCCNC(=O)c1cc(OCc2cn(CCCCN3C[C@@H]4C[C@H]3C(=O)N[C@@H](CCCNC(=N)N)C(=O)NCC(=O)N[C@@H](CC(=O)O)C(=O)N4)nn2)cc(OCc2cn(CCCCN3C[C@@H]4C[C@H]3C(=O)N[C@@H](CCCNC(=N)N)C(=O)NCC(=O)N[C@@H](CC(=O)O)C(=O)N4)nn2)c1 | system: Integrin alpha-V/beta-3 (Homo sapiens, UniProt P05106+P06756)
A. 0.94

Q. I'm curious: which Drug uptake was measured for Cc1[nH]c(/C=C2\C(=O)Nc3ccc(F)cc32)c(C)c1C(=O)NCCNC(=O)CCc1cn(CCCCN2C[C@@H]3C[C@H]2C(=O)N[C@@H](CCCNC(=N)N)C(=O)NCC(=O)N[C@@H](CC(=O)O)C(=O)N3)nn1 tested on Integrin alpha-V/beta-3 (Homo sapiens, UniProt P05106+P06756)?
A. 0.26

More entries:
Q. Give the reported Drug uptake for CCN(CC)CCNC(=O)c1c(C)[nH]c(/C=C2\C(=O)Nc3ccc(F)cc32)c1C (system: Integrin alpha-V/beta-3 (Homo sapiens, UniProt P05106+P06756)).
A. 5.72
